Cited source: patent US20220040297A1

This listing pairs binders with measured ratio of amounts bound (vs GLS3000).
target: CD3ε homodimer protein (human, UniProt P07766 23-126, limits assumed); assay: SPR, immobilized CD3ε homodimer;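 note: biacore T200 surface plasmon resonance at 25 °C, antibody variants flowed as analytes over amine-coupled CD3ε homodimer on a CM4 chip, variant binding amount divided by that of GLS3000 antibody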
Sequence (P07766 23-126 limits assumed): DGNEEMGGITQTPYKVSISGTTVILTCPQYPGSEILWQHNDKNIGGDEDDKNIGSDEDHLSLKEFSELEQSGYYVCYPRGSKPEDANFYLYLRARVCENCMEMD
Just the number.

GLS3000 H34T (antibody, name in Kabat numbering, V domains shown, one-arm format as m2) VH: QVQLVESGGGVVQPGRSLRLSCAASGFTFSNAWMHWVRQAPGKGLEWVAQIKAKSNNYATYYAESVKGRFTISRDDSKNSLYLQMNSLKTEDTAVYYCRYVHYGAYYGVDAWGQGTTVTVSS VL: DIVMTQSPLSLPVTPGEPASISCRSSQSLVHSNRNTYLTWYQQKPGQAPRLLIYKVSNRFSGVPDRFSGSGSGTDFTLKISRVEAEDVGVYYCGQGTQVPYTFGQGTKLEIK: 0.89
GLS3000 N30K (antibody, name in Kabat numbering, V domains shown, one-arm format as m2) VH: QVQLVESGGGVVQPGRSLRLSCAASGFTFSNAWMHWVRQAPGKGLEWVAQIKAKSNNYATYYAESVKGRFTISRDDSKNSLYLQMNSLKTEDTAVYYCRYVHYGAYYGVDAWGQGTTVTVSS VL: DIVMTQSPLSLPVTPGEPASISCRSSQSLVHSNRKTYLHWYQQKPGQAPRLLIYKVSNRFSGVPDRFSGSGSGTDFTLKISRVEAEDVGVYYCGQGTQVPYTFGQGTKLEIK: 1.65
GLS3000 Q27L (antibody, name in Kabat numbering, V domains shown, one-arm format as m2) VH: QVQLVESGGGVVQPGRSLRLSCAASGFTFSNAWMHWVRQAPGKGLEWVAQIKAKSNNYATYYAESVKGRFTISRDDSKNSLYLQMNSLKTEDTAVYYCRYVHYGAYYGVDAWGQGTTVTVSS VL: DIVMTQSPLSLPVTPGEPASISCRSSLSLVHSNRNTYLHWYQQKPGQAPRLLIYKVSNRFSGVPDRFSGSGSGTDFTLKISRVEAEDVGVYYCGQGTQVPYTFGQGTKLEIK: 0.92
GLS3000 Q27E (antibody, name in Kabat numbering, V domains shown, one-arm format as m2) VH: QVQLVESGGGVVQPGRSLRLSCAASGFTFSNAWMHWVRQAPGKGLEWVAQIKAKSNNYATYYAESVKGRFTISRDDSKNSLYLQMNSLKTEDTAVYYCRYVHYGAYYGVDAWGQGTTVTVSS VL: DIVMTQSPLSLPVTPGEPASISCRSSESLVHSNRNTYLHWYQQKPGQAPRLLIYKVSNRFSGVPDRFSGSGSGTDFTLKISRVEAEDVGVYYCGQGTQVPYTFGQGTKLEIK: 0.88
GLS3000 N28D (antibody, name in Kabat numbering, V domains shown, one-arm format as m2) VH: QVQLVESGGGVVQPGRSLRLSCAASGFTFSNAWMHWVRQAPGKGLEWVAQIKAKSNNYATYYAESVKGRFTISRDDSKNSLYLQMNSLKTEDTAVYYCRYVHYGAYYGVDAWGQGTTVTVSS VL: DIVMTQSPLSLPVTPGEPASISCRSSQSLVHSDRNTYLHWYQQKPGQAPRLLIYKVSNRFSGVPDRFSGSGSGTDFTLKISRVEAEDVGVYYCGQGTQVPYTFGQGTKLEIK: 0.19

Report ratio of amounts bound (vs GLS3000) for GLS3000 G89F (antibody, name in Kabat numbering, V domains shown, one-arm format as m2) VH: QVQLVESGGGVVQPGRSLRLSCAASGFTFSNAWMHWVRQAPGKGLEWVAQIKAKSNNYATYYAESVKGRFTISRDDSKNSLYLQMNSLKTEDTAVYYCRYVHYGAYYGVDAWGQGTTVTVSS VL: DIVMTQSPLSLPVTPGEPASISCRSSQSLVHSNRNTYLHWYQQKPGQAPRLLIYKVSNRFSGVPDRFSGSGSGTDFTLKISRVEAEDVGVYYCFQGTQVPYTFGQGTKLEIK please.
1.09

Report ratio of amounts bound (vs GLS3000) for GLS3000 Y32D (antibody, name in Kabat numbering, V domains shown, one-arm format as m2) VH: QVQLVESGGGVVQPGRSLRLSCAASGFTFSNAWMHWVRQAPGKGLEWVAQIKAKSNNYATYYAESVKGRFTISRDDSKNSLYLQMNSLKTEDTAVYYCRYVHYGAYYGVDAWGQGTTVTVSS VL: DIVMTQSPLSLPVTPGEPASISCRSSQSLVHSNRNTDLHWYQQKPGQAPRLLIYKVSNRFSGVPDRFSGSGSGTDFTLKISRVEAEDVGVYYCGQGTQVPYTFGQGTKLEIK please.
0.23

Report ratio of amounts bound (vs GLS3000) for GLS3000 F55T (antibody, name in Kabat numbering, V domains shown, one-arm format as m2) VH: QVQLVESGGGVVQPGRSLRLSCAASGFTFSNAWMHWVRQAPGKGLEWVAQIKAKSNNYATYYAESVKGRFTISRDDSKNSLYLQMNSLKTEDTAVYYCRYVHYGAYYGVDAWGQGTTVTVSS VL: DIVMTQSPLSLPVTPGEPASISCRSSQSLVHSNRNTYLHWYQQKPGQAPRLLIYKVSNRTSGVPDRFSGSGSGTDFTLKISRVEAEDVGVYYCGQGTQVPYTFGQGTKLEIK please.
0.41

Report ratio of amounts bound (vs GLS3000) for GLS3000 H27dW (antibody, name in Kabat numbering, V domains shown, one-arm format as m2) VH: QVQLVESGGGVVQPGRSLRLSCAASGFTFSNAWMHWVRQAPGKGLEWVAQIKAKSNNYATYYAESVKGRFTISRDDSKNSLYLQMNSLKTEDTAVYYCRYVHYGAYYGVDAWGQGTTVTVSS VL: DIVMTQSPLSLPVTPGEPASISCRSSQSLVWSNRNTYLHWYQQKPGQAPRLLIYKVSNRFSGVPDRFSGSGSGTDFTLKISRVEAEDVGVYYCGQGTQVPYTFGQGTKLEIK please.
0.39

Report ratio of amounts bound (vs GLS3000) for GLS3000 K50D (antibody, name in Kabat numbering, V domains shown, one-arm format as m2) VH: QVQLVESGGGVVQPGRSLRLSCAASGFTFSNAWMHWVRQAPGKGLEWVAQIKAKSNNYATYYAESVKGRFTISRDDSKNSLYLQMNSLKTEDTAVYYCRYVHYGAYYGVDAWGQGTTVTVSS VL: DIVMTQSPLSLPVTPGEPASISCRSSQSLVHSNRNTYLHWYQQKPGQAPRLLIYDVSNRFSGVPDRFSGSGSGTDFTLKISRVEAEDVGVYYCGQGTQVPYTFGQGTKLEIK please.
0.22
